- study_target: Histone acetyltransferase RTT109 (Saccharomyces cerevisiae (strain ATCC 204508 / S288c) (Baker's yeast)) (UniProt Q07794)
- Sequence (Q07794 whole entry): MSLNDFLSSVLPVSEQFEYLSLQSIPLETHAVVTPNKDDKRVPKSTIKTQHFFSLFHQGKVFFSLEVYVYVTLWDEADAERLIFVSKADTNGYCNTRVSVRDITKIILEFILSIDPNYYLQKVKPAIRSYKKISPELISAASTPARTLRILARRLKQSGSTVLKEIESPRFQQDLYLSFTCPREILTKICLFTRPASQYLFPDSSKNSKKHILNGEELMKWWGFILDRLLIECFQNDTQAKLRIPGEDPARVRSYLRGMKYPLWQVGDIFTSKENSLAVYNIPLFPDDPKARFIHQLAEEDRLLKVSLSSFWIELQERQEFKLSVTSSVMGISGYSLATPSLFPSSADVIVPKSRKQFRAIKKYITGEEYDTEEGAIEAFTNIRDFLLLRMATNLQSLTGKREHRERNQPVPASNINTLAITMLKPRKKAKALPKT
- experimental_details: Inhibition of Vps75-stimulated recombinant Saccharomyces cerevisiae histone acetyltransferase Rtt109 assessed as H3K27 acetylated product at […] after 45 mins by Slot bolt inhibiton assay
Activity calls are given as the source filed them. No rule for the calls is given here.
Give your call using only these classes: active, inactive

INSERT INTO measurements (structure_as_smiles, assigned_class) VALUES
  ('O=[N+]([O-])c1ccc(Sc2cccc(Cl)c2)c2nonc12', 'active'),
  ('CC(C)(C)c1ccc(S(=O)(=O)Nc2ccc(O)c(Cl)c2)cc1', 'inactive'),
  ('O=c1[nH]c(Sc2c([N+](=O)[O-])cc(Br)c3nsnc23)nc2ccccc12', 'active'),
  ('CC(C)c1ccc(S(=O)(=O)Nc2ccc(O)c(Sc3nc[nH]n3)c2)cc1', 'inactive'),
  ('O=[N+]([O-])c1c(SCc2ccccc2)cc(Cl)c2nonc12', 'active');

Query block: What call does the record list for "[Br-].c1ccc(CNc2nc(-c3ccccc3)[n+](-c3ccccc3)s2)cc1" ?
Result block: active

Query block: What call does the record list for "Cc1ccc(N2C(=O)C=CC2=O)cc1" ?
Result block: active

Query block: What call does the record list for "CC(C)c1ccc(S(=O)(=O)Nc2cc(Sc3nc[nH]n3)c(O)c3ccccc23)cc1" ?
Result block: active
